Molecular target: T1, human IL-6 (human, UniProt P05231 30-212)
T1 construct: also called interleukin-6
T1 sequence (P05231 30-212 limits assumed): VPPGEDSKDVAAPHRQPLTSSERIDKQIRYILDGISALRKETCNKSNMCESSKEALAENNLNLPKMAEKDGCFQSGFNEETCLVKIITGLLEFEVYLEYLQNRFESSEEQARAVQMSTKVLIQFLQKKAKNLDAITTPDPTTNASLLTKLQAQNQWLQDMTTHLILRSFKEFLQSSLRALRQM
Test: SPR (Biacore T200), antibody from cell supernatant captured on Protein A, IL-6 flowed over, 37 C
measure: koff

I'd like to know its koff. The binder in question is anti-IL-6 antibody, heavy chain S35D, G66D / light chain WT (antibody, human IgG1, V domains shown, Derived as m2; Engineered human IgG1) VH: EVQLVESGGGLVQPGGSLRLSCAASGFTFSPFAMDWVRQAPGKGLEWVAKISPGGSWTYYSDTVTDRFTFSLDTSKSTAYLQMNSLRAEDTAVYYCARQLWGYYALDIWGQGTLVTVSS VL: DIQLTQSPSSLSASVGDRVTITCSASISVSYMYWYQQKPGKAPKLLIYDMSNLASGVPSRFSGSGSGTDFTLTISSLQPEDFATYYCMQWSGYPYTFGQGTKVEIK
0.000641 s⁻¹

Another binder to look at: anti-IL-6 antibody, heavy chain I51V, G66D / light chain WT (antibody, human IgG1, V domains shown, Derived as m2; Engineered human IgG1) VH: EVQLVESGGGLVQPGGSLRLSCAASGFTFSPFAMSWVRQAPGKGLEWVAKVSPGGSWTYYSDTVTDRFTFSLDTSKSTAYLQMNSLRAEDTAVYYCARQLWGYYALDIWGQGTLVTVSS VL: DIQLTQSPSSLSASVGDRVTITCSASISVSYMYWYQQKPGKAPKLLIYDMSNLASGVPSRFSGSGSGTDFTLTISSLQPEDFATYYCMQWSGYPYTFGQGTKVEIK
6.68e-06 s⁻¹
